Give solubility kinetic for every item shown.
- condition_description: buffer; pH 7.4; 200.0 µM

Looking up Cn1ncc([N+](=O)[O-])c1C(=O)N1CCCCCC1 , I found its solubility kinetic recorded as > 37.8 µg/mL

Sure, the documented solubility kinetic for COc1ccc(Cl)cc1NC(=O)COC(C)=O is > 38.7 µg/mL

For this molecule ( CC(Cl)C(=O)Nc1cc(C(C)(C)C)nn1-c1ccccc1 (stereo unspecified) ), measured solubility kinetic is > 45.9 µg/mL

Measured solubility kinetic of CCc1cc2c(=O)n(-c3ccccc3)c(SCC(=O)O)nc2s1 : > 52 µg/mL

For record COc1ccc(C(=O)O)cc1S(=O)(=O)N(C)CCc1ccccn1 the listed solubility kinetic is > 52.6 µg/mL

Input CCc1cccc(NC(=O)CC2SC(N3CCCC3)=NC2=O)c1 (stereo unspecified) . Output solubility kinetic: > 49.7 µg/mL

The molecule listed as CCN(CC)S(=O)(=O)c1ccc2[nH]c(=O)c3ccccc3c2c1 has a reported solubility kinetic of < 0.4 µg/mL

Input Cc1ccc(CN(C)Cc2cc(=O)oc3cc(C)c(Cl)cc23)cc1 . Output solubility kinetic: < 0.7 µg/mL

Data point: O=C(NCCCSc1ccccc1)c1ccc(=O)[nH]c1 ; solubility kinetic = > 43.3 µg/mL

The molecule listed as Cc1ccccc1C(=O)Nc1cccc(C(=O)Nc2ccccc2C(=O)O)c1 has a reported solubility kinetic of > 56.2 µg/mL

solubility kinetic recorded for this molecule, COc1cc(-c2nnc(SCC(=O)Nc3ccc(C(=O)O)cc3)o2)cc(OC)c1OC , is > 66.8 µg/mL

Reported solubility kinetic ( O=C(O)C1CSC2(c3ccc(F)cc3)CCC(=O)N12 (stereo unspecified) ) = > 42.2 µg/mL

In plain terms, Cc1cc(F)ccc1S(=O)(=O)N(CC(=O)N1CCOCC1)CC(=O)N1CCOCC1 has a documented solubility kinetic of > 66.5 µg/mL

For OCCN1CCN(C(=S)Nc2ccccc2)CC1 the molecule record lists solubility kinetic as > 39.8 µg/mL

Cc1cccc(C)c1NC(=O)N1CC(C)OC(C)C1 (stereo unspecified) yielded solubility kinetic of > 39.4 µg/mL

response.value for Cc1ccc(C)c(S(=O)(=O)NC(C)C(=O)NCc2ccccn2)c1 (stereo unspecified) (field: solubility kinetic) = > 52.1 µg/mL

Documented solubility kinetic of COc1ccc(OC(=O)/C=C/c2ccc([N+](=O)[O-])cc2)cc1 : < 0.6 µg/mL

solubility kinetic reported for this molecule COc1ccc(C2C(C(C)=O)=C(C)Nc3ncnn32)cc1[N+](=O)[O-] (stereo unspecified) : > 49.4 µg/mL

GET /value?item= COCCCNC(=S)N1CCC(C(=O)c2ccc(Cl)cc2)CC1 &field=solubility kinetic returns > 53.2 µg/mL

Documented solubility kinetic of Cc1c(Cl)cccc1NC(=O)c1ccco1 : > 35.4 µg/mL

Reported solubility kinetic of CN1C(=O)C(=O)/C(=C(/O)c2ccccc2)C1c1ccc([N+](=O)[O-])cc1 (stereo unspecified) : > 50.7 µg/mL

The molecule identified as COc1ccc(C2(c3ccc(OC)cc3)NC(=O)NC2=O)cc1 registered its solubility kinetic at > 46.8 µg/mL

solubility kinetic reported for this molecule Cc1ccc(NS(=O)(=O)c2ccc3c(c2)CCC(=O)N3)cc1 : > 47.5 µg/mL

// NS(=O)(=O)c1ccc(CCNC(=O)NC2CCCCC2)cc1 : solubility kinetic value = > 48.8 µg/mL

solubility kinetic reported for this molecule Cc1cc(C)c[n+](C(C)C(=O)c2ccc(Cl)cc2)c1.[Br-] (stereo unspecified) : > 53.2 µg/mL

What the record says about O=S1(=O)CCN2C=C(Cl)C=C(Cl)C2=N1 : solubility kinetic is > 38 µg/mL
